- experimentalTarget: human polyclonal IgG (Gammanorm) (human)
- assayOverview: SPR (Biacore), ligand amine-coupled to chip, 1 mg/ml human polyclonal IgG flowed; IgG binding signal left after 96 cycles of 10 min 100 mM NaOH
outcomeMeasure: Retained capacity after 96 cycles (%)

The examples below pair each entry with its known result.
Given the binder Domain 2 (D2) of Protein L, variant with alanine in position 31 (protein) AQVPKEEVTIKANLIYADGKTQTAEFKGTFEEAAAEAYRYADALKKDNGEYTVDVADKGYTLNIKFAGKEKTPEEC , what is its reported Retained capacity after 96 cycles (%)? 22

Given the binder Domain 4 (D4) of Peptostreptococcus magnus Protein L (protein) AQVPKEEVTIKANLIYADGKTQTAEFKGTFAEATAEAYRYADLLAKENGKYTADLEDGGYTINIRFAGKKVDEKPEEC , what is its reported Retained capacity after 96 cycles (%)? 26

Given the binder Protein L (four kappa light chain-binding domains, with additional AIHNRA sequence at the N-terminus) (protein) AIHNRAKEETPETPETDSEEEVTIKANLIFANGSTQTAEFKGTFEKATSEAYAYADTLKKDNGEYTVDVADKGYTLNIKFAGKEKTPEEPKEEVTIKANLIYADGKTQTAEFKGTFEEATAEAYRYADALKKDNGEYTVDVADKGYTLNIKFAGKEKTPEEPKEEVTIKANLIYADGKTQTAEFKGTFEEATAEAYRYADLLAKENGKYTVDVADKGYTLNIKFAGKEKTPEEPKEEVTIKANLIYADGKTQTAEFKGTFAEATAEAYRYADLLAKENGKYTADLEDGGYTINIRFAGKKVDEKPEE , what is its reported Retained capacity after 96 cycles (%)? 28

A: Domain 3 (D3) of Peptostreptococcus magnus Protein L (protein) AQVPKEEVTIKANLIYADGKTQTAEFKGTFEEATAEAYRYADLLAKENGKYTVDVADKGYTLNIKFAGKEKTPEEC
B: Domain 1 (D1) of Peptostreptococcus magnus Protein L (protein) AQVSEEEVTIKANLIFANGSTQTAEFKGTFEKATSEAYAYADTLKKDNGEYTVDVADKGYTLNIKFAGKEKTPEEC
Of A and B , which shows the smaller Retained capacity after 96 cycles (%) value? // caller expects the label of the chosen entry B
